assay: MDR reversal; type: cell-based; conditions: human
Result type: IC50 at 72 h (µM)
Give your result in µM as a bare value.

Give the measured IC50 at 72 h of CC(=O)O[C@H]1C(=O)[C@@]2(C)[C@H]([C@H](OC(=O)c3ccccc3)[C@]3(O)C[C@H](OC(=O)[C@H](O)[C@@H](NC(=O)c4ccccc4)c4ccccc4)C(C)=C1C3(C)C)[C@]1(OC(C)=O)CO[C@@H]1C[C@@H]2O [Paclitaxel, paclitaxel] .
2.05
